# System: rodent lifetime carcinogenesis bioassay, tumor incidence TD50
# assay.details: carcinogenic potency in animals, long-term in vivo studies, CPDB compilation (AID 1745844)
# assay.context: rat; strain Wistar; females; inhaled; site: lung; lesion: adenocarcinoma; dosed 78 weeks; study length 134 weeks
measured.attribute: TD50 (mg/kg/day)
# value in mg/kg/day; strip the unit string

# TD50 lookup, item [Cl][Cd][Cl]
0.0253

* * *

# Test system: rodent lifetime carcinogenesis bioassay, tumor incidence TD50
# assay.details: carcinogenic potency in animals, long-term in vivo studies, CPDB compilation (AID 1745844)
# assay.context: mouse; strain B6C3F1; males; inhaled; site: liver; lesion: hepatocellular carcinoma; dosed 52 weeks; study length 104 weeks
measured.attribute: TD50 (mg/kg/day)
# value in mg/kg/day; strip the unit string

# TD50 lookup, item C=CC=C
47

* * *

# Tested on: rodent lifetime carcinogenesis bioassay, tumor incidence TD50
# assay.details: carcinogenic potency in animals, long-term in vivo studies, CPDB compilation (AID 1745844)
# assay.context: rat; strain Sprague-Dawley; females; in feed; site: any site (literature study); lesion: malignant tumor; dosed 105 weeks; study length 105 weeks
Active and inactive are the calls of the source. How the calls were made is not given here.
measured.attribute: TD50

# TD50 lookup, item C/C(=C(\CCOC(=O)c1ccccc1)SC(=O)c1ccccc1)N(C=O)Cc1cnc(C)nc1N
14300 mg/kg/day (inactive)

* * *

# Test system: rodent lifetime carcinogenesis bioassay, tumor incidence TD50
# assay.details: carcinogenic potency in animals, long-term in vivo studies, CPDB compilation (AID 1745844)
# assay.context: rat; strain Fischer 344; males; in feed; site: colon; lesion: adenomatous polyp; dosed 27 weeks; study length 104 weeks
measured.attribute: TD50 (mg/kg/day)
# value in mg/kg/day; strip the unit string

# TD50 lookup, item COc1ccccc1[N+](=O)[O-]
17.2

* * *

# System: rodent lifetime carcinogenesis bioassay, tumor incidence TD50
# assay.details: carcinogenic potency in animals, long-term in vivo studies, CPDB compilation (AID 1745844)
# assay.context: rat; strain Fischer 344; males; in feed; site: pancreatic islets; lesion: islet-cell adenoma + islet-cell carcinoma; dosed 104 weeks; study length 105 weeks
measured.attribute: TD50 (mg/kg/day)
# value in mg/kg/day; strip the unit string

Please tell me: TD50 of OCC(CO)(CBr)CBr , system rodent lifetime carcinogenesis bioassay, tumor incidence TD50?
208

* * *

# Test system: rodent lifetime carcinogenesis bioassay, tumor incidence TD50
# assay.details: carcinogenic potency in animals, long-term in vivo studies, CPDB compilation (AID 1745844)
# assay.context: hamster; strain Syrian Golden; males; by gavage; site: liver; lesion: angiosarcoma; dosed 35 weeks; study length 76 weeks
measured.attribute: TD50 (mg/kg/day)
# value in mg/kg/day; strip the unit string

Please tell me: TD50 of CC1CN(N=O)CC(C)N1N=O (stereo unspecified) , system rodent lifetime carcinogenesis bioassay, tumor incidence TD50?
8.3

* * *

# System: rodent lifetime carcinogenesis bioassay, tumor incidence TD50
# assay.details: carcinogenic potency in animals, long-term in vivo studies, CPDB compilation (AID 1745844)
# assay.context: rat; strain Fischer 344; males; by gavage; site: liver; lesion: hepatocellular adenoma + hepatocellular carcinoma + neoplastic nodule; dosed 106 weeks; study length 108 weeks
measured.attribute: TD50 (mg/kg/day)
# value in mg/kg/day; strip the unit string

# TD50 lookup, item Cc1ccc(N=C=O)cc1N=C=O
196

Numbers sourced from PubChem BioAssay AID1745844.
